Target: Bcl-xL, Q07817
Sequence (Q07817 1-209): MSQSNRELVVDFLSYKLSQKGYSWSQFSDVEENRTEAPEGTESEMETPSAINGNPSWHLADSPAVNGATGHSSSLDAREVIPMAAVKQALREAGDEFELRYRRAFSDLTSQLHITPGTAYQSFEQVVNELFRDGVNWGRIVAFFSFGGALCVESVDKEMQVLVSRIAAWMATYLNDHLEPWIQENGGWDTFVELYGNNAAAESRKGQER
Assay: fluorescence polarisation, direct titration of receptor into 10 nM labelled peptide
pKd: −log10 of the molar value.
Lab note: compare pKd against 6. Equal or greater, write class 1. Smaller, write class 0.

Kindly determine if pKd recorded for KSRLVQQSKALKELADELQERCQRPA [TRIM58] is above or exactly 6.
class 0

Kindly determine if pKd recorded for LCQLSCVSKLMRDVCGSLLQSRGMVI [FBXO30] is above or exactly 6.
class 0

Kindly determine if pKd recorded for AIILCNVCGNLCTDCDRFLHLHRRTK [MYCBP2] is above or exactly 6.
class 0

Kindly determine if pKd recorded for SKFVILSAHKLVFIGDTLSRQAKAAD [BCAR1] is above or exactly 6.
class 0

New cases:
Kindly determine if pKd recorded for ADAIRPRCVELRHLCDDFINGNKKKW [MCF2L2] is above or exactly 6.
class 1

Kindly determine if pKd recorded for RYPILENPEILRKTADDFLNRIALTD [CCNH] is above or exactly 6.
class 0

Kindly determine if pKd recorded for VDSIRPKCQELRHLCDQFSAEIARRR [MCF2L] is above or exactly 6.
class 1

Kindly determine if pKd recorded for FVGYNSTGAELRHWSDMLANPRRPIA [SYT1] is above or exactly 6.
class 0

Kindly determine if pKd recorded for FSKREKLVEILRNIGDERTMVFVETK [DDX4] is above or exactly 6.
class 0

Kindly determine if pKd recorded for TDENKKVGLALKDLAKQYSDRLECCE [NUB1] is above or exactly 6.
class 0

Kindly determine if pKd recorded for NATHEEVVHLLRNAGDEVTITVEYLR [SNTG2] is above or exactly 6.
class 0

Kindly determine if pKd recorded for PAKKMTLSEIYRWICDNFPYYKNAGI [FOXJ2] is above or exactly 6.
class 1

Kindly determine if pKd recorded for SSLSDGLPVHLANIADELTQKKKMFK [AGBL2] is above or exactly 6.
class 0
